Test system: PXR homodimer (NR concentration 270 nM)
EXPERIMENTAL_PROTOCOL: PBM binding z-score (relative to random genomic background probes); higher = stronger binding; sequences stand for … in GC…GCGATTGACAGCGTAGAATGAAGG
Classify by PBM binding z-score. Ranges: Low: < -0.09; Mid: ≥ -0.09 and < 0.8; High: ≥ 0.8

Consider `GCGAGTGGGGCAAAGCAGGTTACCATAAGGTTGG` . To which PBM binding z-score class does it belong?
Low

Quick check: band for `AATCAAAGTTCAGGACGAGGTAACGTAAAGCACG`
High

Hi there! Could you help me figure out the category for `TATACAGGGTCGAAGGCCAGAGTACGAATGTCGA` please?
Mid

Looking at `ACTAGCAGGCCAACTTTGGGTCACTCAAACAAAG` , which class would you pick?
Low

Please classify: `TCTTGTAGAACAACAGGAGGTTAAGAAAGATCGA`
Mid

State the band of `TCTAGTTGGTCACGGAGGTCACACATGACGGGTA`
High

Given `CCTAGAAGGCCAATCTGGGTCACTCAAGGCTTGA` , name the class its PBM binding z-score places it in.
Low

Which category does the recorded PBM binding z-score put `CGTCCAGGGTCAATGCTAGGTCAGTGAAAGCATT` in?
Low

Sort into band: `ATACCAAGGTGATCGTGAGGTCGATGATACTAAC`
Mid

Please report the category associated with `AGTCAAAGTTCATCTAGGTAAAGTAAGATATGCT` , nothing else.
High

Sort into band: `TCTGCTAGGTCAGTTGGTCGGCTAACGAGCTGCC`
Low

Which class is correct for the following sequence? `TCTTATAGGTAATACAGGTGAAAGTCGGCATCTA`
Mid

Category of `CGAACTAGGTCATTGAGAGGACAGTGAATAGTAA` :
Mid

Lab note: sort `AGAATGAGGTTAGACGTAGATCAGGGAAGAAAGT` into the matching PBM binding z-score band.
Mid

Form: Item = `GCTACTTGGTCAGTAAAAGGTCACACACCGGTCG` ; Class = ?
High

Bin? `CGTCAAAGTTCAACTAAGGTAACGTGAAGCACGC`
High

Looking at `CCAGCTAGGTCAATGGTCAGCTAAAGCAGCTCGC` , which class would you pick?
Low

Which PBM binding z-score band matches `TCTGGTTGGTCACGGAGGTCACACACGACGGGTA` ?
High

Class for `ATATGTAGGTTACATCCGGGTCATGCAGGCTATG` ?
Mid

Determine which band this sequence sits in: `CCTAGTTGGTCAGGACGTCACACACCGGATATGA`
Mid

Band for `CCGACTGGGGCATAAGGTTACCATAAGCCAGCCC` ?
Low

Pick a category. Item: `CGTCACAGTTCAAGGTAACGTAACAGAAAGCAGC`
Mid
